// provenance: PubChem BioAssay (EPA / NIEHS)

read-out: Plasminogen activator inhibitor-1 (PAI1), SERPINE1 (gene 5054); assay: BSK_BE3C_PAI1: BioMAP Diversity Plus: BE3C Assay for Plasminogen activator inhibitor-1 (PAI1) Biomarker Activity (AID 2283037); details: primary human bronchial epithelial cells; actives raise or lower the signal
Activity calls are given as the source filed them. The calls were made as follows: active = hit-call score of the fitted dose curve at least 0.9, where 1 is the maximum; inactive = score below 0.9.
Can you answer with just one of these options? 1 = active, -1 = inactive

Recorded results for 5 compounds are shown here.
> print(dat)
                                   compound  qualitative.label
1                             Cc1ccc(Cl)cc1                 -1
2  Oc1ccc2c(c1)OC[C@@H](N1CCC(O)(c3ccc(F)cc3)CC1)[C@H]2O                 -1
3                               Cc1ccccc1Cl                 -1
4           Nc1ccc(S(=O)(=O)c2ccc(N)cc2)cc1                 -1
5  CCCCc1ccc2c(n1)[C@@H](c1ccc(OC)cc1C[C@H](C)C(=O)O)[C@H](C(=O)O)[C@H]2c1ccc2c(c1)OCO2                 -1

Problem: Answer briefly: the call reported for CCCCCCCCCCCCCCCCCC(=O)O in this assay.
Solution: -1
